Where these numbers come from: ChEMBL document CHEMBL1158085

For each of the molecules below, state its IC50.
test system: P388; test: Cytotoxicity against mouse P388 cells; format: functional, cell-based
All answers are understood in µM, so give the number only.

Req: Specify measured IC50 for `CC(=O)Cc1cc(O)c(C)c(O)c1C=O` .
Resp: 19.7

Req: Specify measured IC50 for `Cc1cc(O)c(C)c(O)c1C=O` .
Resp: 126

Req: Specify measured IC50 for CC(C)C[C@@H]1NC(=O)[C@H](CC(C)C)NC(=O)[C@@H](C)NC(=O)[C@H](C(C)C)NC(=O)[C@@H](CC(C)C)NC1=O [CHRYSOSPORIDE] .
Resp: 33.4

Req: Specify measured IC50 for `C/C=C/[C@@H]1OC(=O)C=C[C@@H]1O` .
Resp: 40.9
